src = patent US20070219186A1

target: human B-Raf (Homo sapiens); construct: Flag; GST; made in house; host or cells: Sf9 insect cells (B-Raf); E. coli (MEK1-GST); assay: B-Raf Kinase to MEK1 ELISA; format: biochemical; conditions: read-out: % Inhib./10 uM
Note to self: values exactly at 80% are 1. So inhibition at 10 µM at or above 80% is 1, below is 0.

| compound | label |
| --- | --- |
| CCOC(=O)c1cnn2c(-c3cccc(NC(=O)Cc4cccc(F)c4)c3)ccnc12 | 0 |
| CN(C)CCCNc1cc(-c2cc3nccc(-c4cccc(NC(=O)c5cccc(C(F)(F)F)c5)c4)n3n2)ccn1 | 1 |
| CCOC(=O)c1cnn2c(-c3cccc(NC(=O)c4cccc(Br)c4)c3)ccnc12 | 0 |
| CN(C)CCc1ccccc1-c1cnn2c(-c3cccc(NC(=O)c4cccc(C(F)(F)F)c4)c3)ccnc12 | 0 |
| CN(C)CCc1ccc(-c2cnn3c(-c4cccc(NC(=O)c5cccc(C(F)(F)F)c5)c4)ccnc23)cc1 | 1 |

Prompt line: Determine whether this compound has inhibition at 10 µM no lower than 80%: `Cc1ccc(C(=O)Nc2cccc(-c3ccnc4c(-c5nn[nH]n5)cnn34)c2)cc1C(F)(F)F`
Response line: 0

Prompt line: Could you do the same for `CCOC(=O)c1cnn2c(-c3cccc(NC(=O)c4cc(Cl)ccn4)c3)ccnc12` , please?
Response line: 0

Prompt line: Similarly, `CCOC(=O)c1cnn2c(-c3cccc(NC(=O)Nc4nc5ccc(Cl)cc5s4)c3)ccnc12` ?
Response line: 0

Prompt line: And for `O=C(Nc1cccc(-c2ccnc3c(-c4ccc(CN5CCCC5)o4)cnn23)c1)c1cccc(C(F)(F)F)c1` ?
Response line: 1

Prompt line: Would you mind doing CN1CCCC1CCNC(=O)c1cnn2c(-c3cccc(NC(=O)c4cccc(C(F)(F)F)c4)c3)ccnc12 (stereo not shown) as well?
Response line: 0

----------
In this section we review reported pIC50 values for a set of compounds.
biological target: human B-Raf (Homo sapiens, UniProt P15056); construct: Flag; GST; made in house; host or cells: Sf9 insect cells (B-Raf); E. coli (MEK1-GST); test: B-Raf Kinase to MEK1 ELISA; type: biochemical; details: median; cpd concentrations from 10 μM to 30 nM in half log dilutions; read-out: Median IC50
Sequence (P15056 whole entry): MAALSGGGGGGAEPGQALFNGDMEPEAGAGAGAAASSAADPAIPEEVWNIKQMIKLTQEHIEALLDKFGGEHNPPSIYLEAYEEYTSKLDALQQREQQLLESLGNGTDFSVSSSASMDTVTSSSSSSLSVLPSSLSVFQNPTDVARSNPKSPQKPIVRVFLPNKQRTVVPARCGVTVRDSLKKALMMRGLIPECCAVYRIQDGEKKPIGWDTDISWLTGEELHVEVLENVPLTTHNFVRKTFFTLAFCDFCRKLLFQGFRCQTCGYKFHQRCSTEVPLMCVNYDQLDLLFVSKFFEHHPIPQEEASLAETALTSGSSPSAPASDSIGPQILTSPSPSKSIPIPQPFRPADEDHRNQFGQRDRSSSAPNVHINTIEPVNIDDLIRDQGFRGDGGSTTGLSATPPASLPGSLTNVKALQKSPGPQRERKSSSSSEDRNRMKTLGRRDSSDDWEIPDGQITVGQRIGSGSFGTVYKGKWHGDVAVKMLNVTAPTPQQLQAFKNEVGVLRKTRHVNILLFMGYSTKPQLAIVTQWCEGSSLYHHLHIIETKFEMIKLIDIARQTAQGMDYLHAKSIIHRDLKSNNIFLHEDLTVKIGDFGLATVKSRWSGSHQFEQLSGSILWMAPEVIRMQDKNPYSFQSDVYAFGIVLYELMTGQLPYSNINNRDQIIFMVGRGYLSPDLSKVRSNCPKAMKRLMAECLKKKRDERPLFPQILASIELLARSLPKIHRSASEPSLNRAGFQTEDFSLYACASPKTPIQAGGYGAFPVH
In textbook form, pIC50 equals minus log to base ten of the concentration in mol/L.

These solved cases illustrate the format of a correct answer.
| compound | pIC50 |
| --- | --- |
| O=C(Nc1cccc(-c2ccnc3c(-c4cccnc4)cnn23)c1)c1ccc(F)c(C(F)(F)F)c1 | 6.42 |
| COCCOC(=O)c1cnn2c(-c3cccc(NC(=O)c4cccc(C(F)(F)F)c4)c3)ccnc12 | 6.94 |

Prompt line: For `O=C(Nc1cccc(-c2ccnc3c(-c4cccnc4)cnn23)c1)Nc1ccc(Cl)c(C(F)(F)F)c1` , what is its reported pIC50?
Response line: 6.96

Prompt line: What about this compound? CC(O)c1cccc(-c2cnn3c(-c4cccc(NC(=O)c5cccc(C(F)(F)F)c5)c4)ccnc23)c1 (stereo not shown)
Response line: 6.71

----------
target: human B-Raf (Homo sapiens); construct: Flag; GST; made in house; host or cells: Sf9 insect cells (B-Raf); E. coli (MEK1-GST); experiment: B-Raf Kinase to MEK1 ELISA; type: biochemical; conditions: median; cpd concentrations from 10 μM to 30 nM in half log dilutions; read-out: Median IC50
Returns: string. Value is yes (1) if measured IC50 is below 600 nM, and no (0) if it is greater than or equal to it.

| sampleSmiles | assaySystem | label |
| --- | --- | --- |
| COc1ccc(C(=O)Nc2cccc(-c3ccnc4cc(-c5ccncc5)nn34)c2)cc1C(F)(F)F | human B-Raf (Homo sapiens) | yes (1) |
| CCOC(=O)c1cnn2c(-c3cccc(NC(=O)Nc4ccc(C)c(Cl)c4)c3)ccnc12 | human B-Raf (Homo sapiens) | yes (1) |
| CCOC(=O)c1cnn2c(-c3cccc(NC(=O)c4cc(C(C)(C)C)nn4C)c3)ccnc12 | human B-Raf (Homo sapiens) | no (0) |

Prompt line: Item `CCOC(=O)c1cnn2c(-c3cccc(NC(=O)Nc4cc(C(F)(F)F)ccc4Cl)c3)ccnc12` : IC50 beneath 600 nM, strictly?
Response line: no (0)

Prompt line: Also need `CCOC(=O)c1cnn2c(-c3cccc(NC(=O)Nc4ccc(Cl)cc4C(F)(F)F)c3)ccnc12` , thanks.
Response line: no (0)

Prompt line: Please do the same for `CCOC(=O)c1cnn2c(-c3cccc(NC(=O)c4cccc(C(F)(F)F)c4)c3)ccnc12` as well.
Response line: no (0)

Prompt line: Moving on to the next compound: `O=C(Nc1cccc(-c2ccnc3cc(N4CCOCC4)nn23)c1)Nc1ccc(Cl)c(Cl)c1`
Response line: yes (1)

Prompt line: Same question for `O=C(Nc1cccc(-c2ccnc3c(Br)cnn23)c1)Nc1ccc(Cl)c(C(F)(F)F)c1` please.
Response line: yes (1)

----------
Target: human B-Raf (Homo sapiens, UniProt P15056)
Construct: Flag; GST; made in house; host or cells: Sf9 insect cells (B-Raf); E. coli (MEK1-GST)
Experiment: B-Raf Kinase to MEK1 ELISA
Format: biochemical
Settings: median; cpd concentrations from 10 μM to 30 nM in half log dilutions; read-out: Median IC50
Protocol: TITLE: B-Raf Kinase to MEK1 ELISA PURPOSE: To discover B-Raf Kinase inhibitors that can inhibit growth of tumor cells which contain oncogenic forms of Receptor Tyrosine Kinases or K-Ras, or B-Raf kinase. […] B-Raf-1 is used to phosphorylate GST-MEK1. MEK1 phosphorylation is measured by a phospho-specific antibody (from Cell Signaling Technology, cat. #9121) that detects phosphorylation of two serine residues at positions 217 and 221 on MEK1. […] 11. Read plates in Wallac Victor model Plate Reader. […]
Overview of recorded pIC50 for various compounds
Scale note: pIC50 = -log10(concentration in M).

| sampleSmiles | pIC50 |
| --- | --- |
| O=C(Nc1cccc(-c2ccnc3c(Br)cnn23)c1)Nc1ccc(Cl)c(Cl)c1 | 5.62 |
| O=C(Nc1cccc(-c2ccnc3c(C(=O)NCc4ccccc4)cnn23)c1)c1cccc(C(F)(F)F)c1 | 5.79 |
| O=C(Nc1cccc(-c2ccnc3cc(-c4ccnc(NCCCN5CCCCC5)c4)nn23)c1)c1cccc(C(F)(F)F)c1 | 7.04 |

Prompt line: // pIC50 lookup, key: `O=C(Nc1cccc(-c2ccnc3c(C(=O)NCCCn4ccnc4)cnn23)c1)Nc1ccc(Cl)c(C(F)(F)F)c1`
Response line: 6.92

----------
Entries and their inhibition at 10 µM values follow.
biological target: human B-Raf (Homo sapiens); construct: Flag; GST; made in house; host or cells: Sf9 insect cells (B-Raf); E. coli (MEK1-GST); assay: B-Raf Kinase to MEK1 ELISA; format: biochemical; conditions: read-out: % Inhib./10 uM
A complete answer gives the number followed by the unit.

Use these answered entries as a reference point.
| molecule | measuredQuantity | experimentalValue |
| --- | --- | --- |
| Cc1ccc(C(=O)Nc2cccc(-c3ccnc4c(-c5ccncc5)cnn34)c2)cc1C(F)(F)F [Example 188] | inhibition at 10 µM | 86% |
| CC(=O)NCC(=O)Nc1cccc(-c2cnn3c(-c4cccc(NC(=O)c5cccc(C(F)(F)F)c5)c4)ccnc23)c1 [Example 255] | inhibition at 10 µM | 91% |
| CN1CCN(CCCNC(=O)c2cnn3c(-c4cccc(NC(=O)c5cccc(C(F)(F)F)c5)c4)ccnc23)CC1 [Example 50] | inhibition at 10 µM | 42% |
| CCOC(=O)c1cnn2c(-c3cccc(NC(=O)c4ccc(OC)c(C(F)(F)F)c4)c3)ccnc12 [Example 30] | inhibition at 10 µM | 75% |

Prompt line: I would be grateful if you could share the reported inhibition at 10 µM for CCOC(=O)c1cnn2c(-c3cccc(NS(=O)(=O)c4cccc(C(F)(F)F)c4)c3)ccnc12 [Example 12] .
Response line: 7%

----------
target: human B-Raf (Homo sapiens); construct: Flag; GST; made in house; host or cells: Sf9 insect cells (B-Raf); E. coli (MEK1-GST); assay: B-Raf Kinase to MEK1 ELISA; format: biochemical; settings: median; cpd concentrations from 10 μM to 30 nM in half log dilutions; read-out: Median IC50
Quick list: IC50 per entry.
Write the number in nM without appending the unit.

| sampleSmiles | IC50 / nM |
| --- | --- |
| O=C(Cc1c[nH]cn1)Nc1ccc(-c2cnn3c(-c4cccc(NC(=O)c5cccc(C(F)(F)F)c5)c4)ccnc23)cc1 | 174 |

Prompt line: Return reported IC50; argument: `O=C(Nc1ccc(F)c(-c2ccnc3cc(-c4ccncc4)nn23)c1)c1cccc(C(F)(F)F)c1`
Response line: 42.3

Prompt line: Ok, now `O=C(Cc1nnn[nH]1)Nc1ccc(-c2cnn3c(-c4cccc(NC(=O)c5cccc(C(F)(F)F)c5)c4)ccnc23)cc1`
Response line: 1000

Prompt line: And what about the compound `Cc1ccc(C(=O)Nc2cccc(-c3ccnc4cc(N5CCOCC5)nn34)c2)cc1C(F)(F)F` ?
Response line: 110
